Entries and their MFC Aspergillus brasiliensis values follow.
Tested on: Aspergillus brasiliensis (ATCC 16404)
Assay type: cell-based
settings: ATCC 16404, 48 h
All answers are understood in µg/mL, so give the number only.

CCCCCCCCCCCCCCCC(=O)N[C@@H](CCCCN)C(=O)N[C@@H](CCCCN)C(N)=O
128

Consider now this further compound.
In: Retrieve MFC Aspergillus brasiliensis measured for `CCCCCCCCCCCC(=O)N[C@@H](CCCCN)C(N)=O` and print it.
Out: 512

###

Test system: Candida tropicalis (PCM 2681)
Type: cell-based
settings: PCM 2681, 48 h
Where a SMILES comes first, the peptide text is derived from it. The star is where a group is joined. Palmitoyl = CCCCCCCCCCCCCCCC(=O)*; Myristoyl = CCCCCCCCCCCCCC(=O)*; Decanoyl = CCCCCCCCCC(=O)*; Octanoyl = CCCCCCCC(=O)*
In plain terms, low MFC Candida tropicalis, meaning strictly below 500 µg/mL, gives y, and everything else gives n.

Study these solved cases before continuing.
CCCCCCCC(=O)N[C@@H](CCCCN)C(=O)N[C@@H](CCCCN)C(=O)N[C@@H](CCCCN)C(N)=O
n
CCCCCCCC(=O)N[C@@H](CCCCN)C(=O)N[C@@H](CCCCN)C(=O)N[C@@H](CCCCN)C(=O)N[C@@H](CCCCN)C(N)=O [C8-KKKK-NH2] (Octanoyl-KKKK-NH2)
n
CCCCCCCC(=O)N[C@@H](CCCCN)C(=O)N[C@@H](CCCCN)C(N)=O
n
CCCCCCCCCCCCCCCC(=O)N[C@@H](CCCCN)C(=O)N[C@@H](CCCCN)C(N)=O
y
CCCCCCCCCCCCCC(=O)N[C@@H](CCCCN)C(=O)N[C@@H](CCCCN)C(=O)N[C@@H](CCCCN)C(N)=O
y
CCCCCCCC(=O)N[C@@H](CCCCN)C(N)=O
n
CCCCCCCCCC(=O)N[C@@H](CCCCN)C(=O)NCC(=O)N[C@@H](CCCCN)C(=O)NCC(N)=O [C10-KGKG-NH2] (Decanoyl-KGKG-NH2)
n
CCCCCCCCCCCCCC(=O)N[C@@H](CCCCN)C(=O)N[C@@H](CCCCN)C(=O)N[C@@H](CCCCN)C(=O)N[C@@H](CCCCN)C(N)=O [C14-KKKK-NH2] (Myristoyl-KKKK-NH2)
y
CCCCCCCC(=O)N[C@@H](CCCCN)C(=O)NCC(=O)N[C@@H](CCCCN)C(N)=O [C8-KGK-NH2] (Octanoyl-Lys-Gly-Lys-NH2)
n
CCCCCCCCCCCC(=O)N[C@@H](CCCCN)C(=O)N[C@@H](CCCCN)C(=O)N[C@@H](CCCCN)C(N)=O
n

In: Bench note: check whether CCCCCCCCCCCCCCCC(=O)N[C@@H](CCCCN)C(=O)NCC(=O)N[C@@H](CCCCN)C(N)=O [C16-KGK-NH2] (Palmitoyl-Lys-Gly-Lys-NH2) shows MFC Candida tropicalis below 500 µg/mL
Out: y

In: Bench note: check whether `CCCCCCCCCCCCCC(=O)N[C@@H](CCCCN)C(=O)N[C@@H](CCCCN)C(N)=O` shows MFC Candida tropicalis below 500 µg/mL
Out: y

In: Bench note: check whether CCCCCCCC(=O)N[C@@H](CCCCN)C(=O)NCC(N)=O [C8-KG-NH2] (Octanoyl-Lys-Gly-NH2) shows MFC Candida tropicalis below 500 µg/mL
Out: n

###

Entries and their MBC Klebsiella pneumoniae, lipopeptides without TFA counter ion values follow.
System: Klebsiella pneumoniae (ATCC 700603)
Type: cell-based
settings: ATCC 700603, 18 h
Where a SMILES comes first, the peptide text is derived from it. The star is where a group is joined. Palmitoyl = CCCCCCCCCCCCCCCC(=O)*
All answers are understood in µg/mL, so give the number only.

CCCCCCCCCCCCCCCC(=O)N[C@@H](CCCCN)C(N)=O
512

In: Retrieve MBC Klebsiella pneumoniae, lipopeptides without TFA counter ion measured for CCCCCCCCCCCCCCCC(=O)N[C@@H](CCCCN)C(=O)NCC(=O)N[C@@H](CCCCN)C(=O)NCC(N)=O [C16-KGKG-NH2] (Palmitoyl-KGKG-NH2) and print it.
Out: 32

In: Retrieve MBC Klebsiella pneumoniae, lipopeptides without TFA counter ion measured for `CCCCCCCCCCCCCC(=O)N[C@@H](CCCCN)C(N)=O` and print it.
Out: 512

In: Retrieve MBC Klebsiella pneumoniae, lipopeptides without TFA counter ion measured for `CCCCCCCCCCCCCCCC(=O)N[C@@H](CCCCN)C(=O)N[C@@H](CCCCN)C(N)=O` and print it.
Out: 32

###

Test system: Staphylococcus aureus (ATCC 25923)
Format: cell-based
settings: ATCC 25923, 24 h
Where a SMILES comes first, the peptide text is derived from it. The star is where a group is joined. Palmitoyl = CCCCCCCCCCCCCCCC(=O)*; Myristoyl = CCCCCCCCCCCCCC(=O)*; Lauroyl = CCCCCCCCCCCC(=O)*
Entries and their MBC Staphylococcus aureus values follow.
All answers are understood in µg/mL, so give the number only.

// solved cases for MBC Staphylococcus aureus follow
CCCCCCCCCCCCCC(=O)N[C@@H](CCCCN)C(=O)NCC(=O)N[C@@H](CCCCN)C(N)=O [C14-KGK-NH2] (Myristoyl-Lys-Gly-Lys-NH2)
128
CCCCCCCCCCCC(=O)N[C@@H](CCCCN)C(N)=O
256
CCCCCCCCCCCCCCCC(=O)N[C@@H](CCCCN)C(=O)N[C@@H](CCCCN)C(=O)N[C@@H](CCCCN)C(N)=O
8

In: Retrieve MBC Staphylococcus aureus measured for CCCCCCCCCCCCCCCC(=O)N[C@@H](CCCCN)C(=O)NCC(=O)N[C@@H](CCCCN)C(N)=O [C16-KGK-NH2] (Palmitoyl-Lys-Gly-Lys-NH2) and print it.
Out: 8

In: Retrieve MBC Staphylococcus aureus measured for `CCCCCCCCCCCCCCCC(=O)N[C@@H](CCCCN)C(=O)N[C@@H](CCCCN)C(N)=O` and print it.
Out: 8

In: Retrieve MBC Staphylococcus aureus measured for CCCCCCCCCCCC(=O)N[C@@H](CCCCN)C(=O)N[C@@H](CCCCN)C(=O)N[C@@H](CCCCN)C(=O)N[C@@H](CCCCN)C(N)=O [C12-KKKK-NH2] (Lauroyl-KKKK-NH2) and print it.
Out: 1000

In: Retrieve MBC Staphylococcus aureus measured for CCCCCCCCCCCC(=O)N[C@@H](CCCCN)C(=O)NCC(=O)N[C@@H](CCCCN)C(=O)NCC(N)=O [C12-KGKG-NH2] (Lauroyl-KGKG-NH2) and print it.
Out: 2000

In: Retrieve MBC Staphylococcus aureus measured for CCCCCCCCCCCCCCCC(=O)N[C@@H](CCCCN)C(=O)NCC(N)=O [C16-KG-NH2] (Palmitoyl-Lys-Gly-NH2) and print it.
Out: 8

In: Retrieve MBC Staphylococcus aureus measured for `CCCCCCCCCCCCCC(=O)N[C@@H](CCCCN)C(=O)N[C@@H](CCCCN)C(N)=O` and print it.
Out: 64

In: Retrieve MBC Staphylococcus aureus measured for CCCCCCCCCCCC(=O)N[C@@H](CCCCN)C(=O)NCC(N)=O [C12-KG-NH2] (Lauroyl-Lys-Gly-NH2) and print it.
Out: 512

In: Retrieve MBC Staphylococcus aureus measured for CCCCCCCCCCCCCC(=O)N[C@@H](CCCCN)C(=O)N[C@@H](CCCCN)C(=O)N[C@@H](CCCCN)C(=O)N[C@@H](CCCCN)C(N)=O [C14-KKKK-NH2] (Myristoyl-KKKK-NH2) and print it.
Out: 128

In: Retrieve MBC Staphylococcus aureus measured for CCCCCCCCCCCC(=O)N[C@@H](CCCCN)C(=O)NCC(=O)N[C@@H](CCCCN)C(N)=O [C12-KGK-NH2] (Lauroyl-Lys-Gly-Lys-NH2) and print it.
Out: 1000

In: Retrieve MBC Staphylococcus aureus measured for CCCCCCCCCCCCCCCC(=O)N[C@@H](CCCCN)C(=O)NCC(=O)N[C@@H](CCCCN)C(=O)NCC(N)=O [C16-KGKG-NH2] (Palmitoyl-KGKG-NH2) and print it.
Out: 32

In: Retrieve MBC Staphylococcus aureus measured for `CCCCCCCCCCCCCC(=O)N[C@@H](CCCCN)C(=O)N[C@@H](CCCCN)C(=O)N[C@@H](CCCCN)C(N)=O` and print it.
Out: 64

###

Test system: Staphylococcus epidermidis (PCM 2118)
Assay type: cell-based
settings: PCM 2118, 24 h
Where a SMILES comes first, the peptide text is derived from it. The star is where a group is joined. Palmitoyl = CCCCCCCCCCCCCCCC(=O)*; Decanoyl = CCCCCCCCCC(=O)*
measured-parameter: MBC Staphylococcus epidermidis

// solved cases for MBC Staphylococcus epidermidis follow
CCCCCCCCCCCCCCCC(=O)N[C@@H](CCCCN)C(=O)NCC(=O)N[C@@H](CCCCN)C(=O)NCC(N)=O [C16-KGKG-NH2] (Palmitoyl-KGKG-NH2)
4 µg/mL
CCCCCCCCCC(=O)N[C@@H](CCCCN)C(=O)N[C@@H](CCCCN)C(N)=O
512 µg/mL

Consider now this further compound.
In: Retrieve MBC Staphylococcus epidermidis measured for CCCCCCCCCC(=O)N[C@@H](CCCCN)C(=O)NCC(=O)N[C@@H](CCCCN)C(=O)NCC(N)=O [C10-KGKG-NH2] (Decanoyl-KGKG-NH2) and print it.
Out: 512 µg/mL

src = paper PMC5285354
